Target: recombinant human NK3 receptor (Homo sapiens, UniProt P29371)
Construct: expressed in transfected cells; host or cells: HEK293 cells, transient expression; membrane preparation
Sequence (P29371 whole entry): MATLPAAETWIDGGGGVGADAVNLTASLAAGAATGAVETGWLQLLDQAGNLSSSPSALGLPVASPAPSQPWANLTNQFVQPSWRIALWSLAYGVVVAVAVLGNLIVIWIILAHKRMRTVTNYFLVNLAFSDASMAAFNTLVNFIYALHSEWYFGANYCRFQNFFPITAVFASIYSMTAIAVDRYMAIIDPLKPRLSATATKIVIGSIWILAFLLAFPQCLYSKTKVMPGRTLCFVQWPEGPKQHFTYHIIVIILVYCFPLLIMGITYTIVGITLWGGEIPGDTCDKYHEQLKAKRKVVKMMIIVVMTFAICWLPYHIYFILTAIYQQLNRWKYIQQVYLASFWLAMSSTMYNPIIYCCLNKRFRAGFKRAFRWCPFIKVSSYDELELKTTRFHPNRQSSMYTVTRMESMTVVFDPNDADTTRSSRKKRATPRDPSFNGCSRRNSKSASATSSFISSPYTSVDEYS
Assay: [3H]SR142801 competition binding assay
Conditions: [3H]SR142801, membranes of HEK293 cells transiently expressing recombinant human NK3 receptor; read-out: hNK3 Ki
pKi: −log10 of the molar value.
Cut-off 7 on pKi, inclusive. At or above means 1; below means 0.

| molecule | category |
| --- | --- |
| CCN(C1CCN(CCC(C)(C(=O)N(C)Cc2ccc(C(F)(F)F)c(F)c2)c2ccc(Cl)c(Cl)c2)CC1)S(C)(=O)=O (centres unmarked) | 1 |
| CC(=O)N(C)C1CCN(CCC(C)(C(=O)N(C)Cc2ccc(F)c(C(F)(F)F)c2)c2ccc(Cl)c(Cl)c2)CC1 (centres unmarked) [Example 104] | 1 |
| CC[C@@H](NC(=O)C(C)(CCN1CCC(N(CCOC)C(C)=O)CC1)c1ccc(Cl)c(Cl)c1)c1ccccc1 (some centres unmarked) | 1 |
| CN(Cc1ccc(Cl)cc1)C(=O)C(CCN1CCC(N2CCCC2=O)CC1)c1ccc(F)c(F)c1 (centres unmarked) | 0 |
| CC(=O)NC1CCN(CCC(C)(C(=O)N[C@@H](CO)c2ccc(Cl)cc2)c2ccc(Cl)c(Cl)c2)CC1 (single isomer, unassigned; diastereoisomer 2) [Example 157] | 0 |

====

Target: recombinant human NK3 receptor (Homo sapiens, UniProt P29371)
Construct: expressed in transfected cells; host or cells: HEK293 cells, transient expression; membrane preparation
Experiment: [3H]SR142801 competition binding assay
Conditions: [3H]SR142801, membranes of HEK293 cells transiently expressing recombinant human NK3 receptor; read-out: hNK3 Ki
pKi: −log10 of the molar value.
measured-metric: pKi

| molecule | measured-metric | measured-number |
| --- | --- | --- |
| CC[C@H](NC(=O)C(C)(CCN1CCC(NC(C)=O)CC1)c1ccc(Cl)c(Cl)c1)c1ccccc1 (stereo partly drawn) | pKi | 7.35 |
| CC(=O)N(C)C1CCN(CCC(C)(C(=O)N[C@H](CO)c2ccc(F)cc2)c2ccc(Cl)c(Cl)c2)CC1 (single isomer, unassigned; diastereoisomer 2) | pKi | 6.85 |
| CC[C@H](NC(=O)C(C)(CCN1CCC(N(CCOC)C(C)=O)CC1)c1ccc(Cl)c(Cl)c1)c1ccccc1 (stereo partly drawn) | pKi | 8.96 |
| CN(Cc1ccc(Cl)c(C(F)(F)F)c1)C(=O)C(F)(CCN1CCC(N(C)S(C)(=O)=O)CC1)c1ccc(Cl)c(Cl)c1 (stereo not drawn) | pKi | 7.61 |
| CN(Cc1cccc(F)c1)C(=O)C(C)(CCN1CCC(NS(C)(=O)=O)CC1)c1ccc(Cl)c(Cl)c1 (stereo not drawn) | pKi | 6.91 |
| CN(Cc1ccc(Cl)c(C(F)(F)F)c1)C(=O)C(CCN1CCC(NS(C)(=O)=O)CC1)c1ccc(Cl)c(Cl)c1 (stereo not drawn) | pKi | 6.83 |
| CN(Cc1ccc(F)c(C(F)(F)F)c1)C(=O)C(F)(CCN1CCC(NS(C)(=O)=O)CC1)c1ccc(Cl)c(Cl)c1 (stereo not drawn) | pKi | 6.91 |
| CS(=O)(=O)NC1CCN(CCC(C(=O)NCc2ccc(Cl)c(Cl)c2)c2ccc(Cl)c(Cl)c2)CC1 (stereo not drawn) | pKi | 6.72 |
| COc1cccc(CN(C)C(=O)C(C)(CCN2CCC(NS(C)(=O)=O)CC2)c2ccc(Cl)c(Cl)c2)c1 (stereo not drawn) | pKi | 6.67 |

====

Target: recombinant human NK3 receptor (Homo sapiens)
Construct: expressed in transfected cells; host or cells: HEK293 cells, transient expression; membrane preparation
Experiment: [3H]SR142801 competition binding assay
Conditions: [3H]SR142801, membranes of HEK293 cells transiently expressing recombinant human NK3 receptor; read-out: hNK3 Ki
pKi: −log10 of the molar value.
Cut-off 8 on pKi, inclusive. At or above means yes (1); below means no (0).

| molecule | experimental-system | category |
| --- | --- | --- |
| CC(CCN1CCC(NS(C)(=O)=O)CC1)(C(=O)NCc1cc(C(F)(F)F)ccc1F)c1ccc(Cl)c(Cl)c1 (stereo not drawn) [Example 15] | recombinant human NK3 receptor (Homo sapiens) | no (0) |
| CN(C1CCN(CCC(C)(C(=O)N[C@H](CO)c2ccc(Cl)c(Cl)c2)c2ccc(Cl)c(Cl)c2)CC1)S(C)(=O)=O (single isomer, unassigned; diastereoisomer 2) [Example 50] | recombinant human NK3 receptor (Homo sapiens) | no (0) |
| CC(CCN1CCC(NS(C)(=O)=O)CC1)(C(=O)NCc1ccc(C(F)(F)F)cc1)c1ccc(Cl)c(Cl)c1 (stereo not drawn) [Example 14] | recombinant human NK3 receptor (Homo sapiens) | no (0) |
| Cc1ccc(CN(C)C(=O)C(C)(CCN2CCC(N3CCCC3=O)CC2)c2ccc(Cl)c(Cl)c2)cc1 (stereo not drawn) [Example 89] | recombinant human NK3 receptor (Homo sapiens) | yes (1) |
| COCCN(C(C)=O)C1CCN(CCC(C)(C(=O)N[C@@H](CO)c2ccc(F)cc2)c2ccc(Cl)c(Cl)c2)CC1 (single isomer, unassigned) [Example 151] | recombinant human NK3 receptor (Homo sapiens) | no (0) |

====

Target: recombinant human NK3 receptor (Homo sapiens, UniProt P29371)
Construct: expressed in transfected cells; host or cells: HEK293 cells, transient expression; membrane preparation
Test: [3H]SR142801 competition binding assay
Conditions: [3H]SR142801, membranes of HEK293 cells transiently expressing recombinant human NK3 receptor; read-out: hNK3 Ki
pKi: −log10 of the molar value.

| compound | pKi |
| --- | --- |
| CC(CCN1CCC(N2CCCC2=O)CC1)(C(=O)N[C@@H](CO)c1ccc(F)cc1)c1ccc(Cl)c(Cl)c1 (single isomer, unassigned) [Example 130] | 7.00 |
| CN(Cc1ccc(Cl)c(C(F)(F)F)c1)C(=O)C(F)(CCN1CCC(NS(C)(=O)=O)CC1)c1ccc(Cl)c(Cl)c1 (stereo not drawn) | 6.93 |
| CC[C@@H](NC(=O)C(C)(CCN1CCC(N2CCCC2=O)CC1)c1ccc(Cl)c(Cl)c1)c1ccccc1 (stereo partly drawn) | 7.04 |

Cited source for all entries: patent US20110021565A1
